target: Prostaglandin E synthase (Homo sapiens) (UniProt O14684); experiment: Inhibition of mPGES-1 in human IL-1beta-stimulated A549 cell microsomes assessed as residual activity by measuring reduction of PGE2 formation from PGH2 at 10 uM after 15 mins by RP-HPLC analysis; details: Microsome
Sequence (O14684 whole entry): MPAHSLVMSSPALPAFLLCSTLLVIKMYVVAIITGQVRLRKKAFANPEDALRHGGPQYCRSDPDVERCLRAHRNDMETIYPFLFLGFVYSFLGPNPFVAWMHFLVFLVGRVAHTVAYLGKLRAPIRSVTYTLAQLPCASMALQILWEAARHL
Field 'label' (enum: Satisfied / Not satisfied). Set to Satisfied when Activity is strictly under 70%; else Not satisfied.

Report whether reported Activity is lower than 70% (strictly) for CCCC/C(=C\c1cc(OCc2ccc(C(F)(F)F)cc2)ccc1OCc1ccc(C(F)(F)F)cc1)C(=O)O Satisfied

Report whether reported Activity is lower than 70% (strictly) for CCCC/C(=C\c1cc(OCCC2CCCCC2)ccc1OCc1ccc(C(F)(F)F)cc1)C(=O)O Not satisfied

Report whether reported Activity is lower than 70% (strictly) for CCCCC(Sc1nc(OCCc2ccc(OC(F)(F)F)cc2)cc(OCCc2ccc(OC(F)(F)F)cc2)n1)C(=O)O (stereo not given) Not satisfied

Report whether reported Activity is lower than 70% (strictly) for CCCCC(Sc1nc(OCCC(C)C)cc(OCCC(C)C)n1)C(=O)O (stereo not given) Satisfied

Report whether reported Activity is lower than 70% (strictly) for CCCCC(Sc1nc(OCCC2CCCC2)cc(OCCC2CCCC2)n1)C(=O)O (stereo not given) Not satisfied
